// reported cleaved RNA product abundance for each item listed
System: Bacillus subtilis
Assay: cleaved RNA product abundance (RNA/gDNA barcode ratio) relative to median wild-type variant (ratio to wild type); higher = more accumulation of the downstream cleavage product
Conditions: experiment (reporter, strain, medium): exp 2b: truncated aprE reporter, strain BJT200; cleavage site: cggR-gapA (positions -7 to +36 mutated)

[
  {
    "ordered.residues": "ACAGACGAAGGAGCCGCAAAGAAGTTATAAAGGGATTAATAATCCCTCAATATAAATATCTCTCACTTATTTAAA",
    "cleaved RNA product abundance": 0.333
  },
  {
    "ordered.residues": "ACAGACGAAGGAGCCGCAAAGAAGTTATTAAGGAATGAATAATCCCTAAATATAAATATCTCTCACTTATTTAAA",
    "cleaved RNA product abundance": 0.152
  },
  {
    "ordered.residues": "ACAGACGAAGGAGCCGCAAAGAAGTTATTAAGGCATGAATAATCCCTCAATATAAATATCTCTCACTTATTTAAA",
    "cleaved RNA product abundance": 0.0901
  },
  {
    "ordered.residues": "ACAGACGAAGGAGCCGCAAATAAGTTATTAAGGGATGAATAATCCCTCAATATACATATCTCTCACTTATTTAAA",
    "cleaved RNA product abundance": 0.727
  },
  {
    "ordered.residues": "ACAGACGAAGGAGCCGCAAAGAAGTTAATAAGGGATGAATAATCTCTCAATATAAATATCTCTCACTTATTTAAA",
    "cleaved RNA product abundance": 0.195
  },
  {
    "ordered.residues": "ACAGACGAAGGAGCCGCAAAGAAGTTATTAAGGGATGAATAATCACTGAATATAAATATCTCTCACTTATTTAAA",
    "cleaved RNA product abundance": 0.0838
  },
  {
    "ordered.residues": "ACAGACGAAGGAGCCGCAAAGAAGTTATTAAGGGATCGATAATCCCTCAATATAAATATCTCTCACTTATTTAAA",
    "cleaved RNA product abundance": 0.652
  },
  {
    "ordered.residues": "ACAGACGAAGGAGCCGCAAAGAAGTTAATAAGGGATGAATAATCCCGCAATATAAATATCTCTCACTTATTTAAA",
    "cleaved RNA product abundance": 0.0984
  },
  {
    "ordered.residues": "ACAGACGAAGGAGCCGCAAAAAAGTTATTAAGGGATGAATAAGCCCTCAATATAAATATCTCTCACTTATTTAAA",
    "cleaved RNA product abundance": 0.639
  },
  {
    "ordered.residues": "ACAGACGAAGGAGCCGCAAAGAAGTTAATAAGGGATGAATAATGCCTCAATATAAATATCTCTCACTTATTTAAA",
    "cleaved RNA product abundance": 0.121
  },
  {
    "ordered.residues": "ACAGACGAAGGAGCCGCAAAGAAGTTATTAAGGGATGAAAAACCCCTCAATATAAATATCTCTCACTTATTTAAA",
    "cleaved RNA product abundance": 0.477
  },
  {
    "ordered.residues": "ACAGACGAAGGAGCCGCAAAGAAGTTATTAAAGGATGAATACTCCCTCAATATAAATATCTCTCACTTATTTAAA",
    "cleaved RNA product abundance": 0.117
  },
  {
    "ordered.residues": "ACAGACGAAGGAGCCGCAAAGAAGTTATTAAGGTATGAATAATCCCTAAATATAAATATCTCTCACTTATTTAAA",
    "cleaved RNA product abundance": 0.109
  },
  {
    "ordered.residues": "ACAGACGAAGGAGCCGCAAAGAAGCTATTAAGGGAGGAATAATCCCTCAATATAAATATCTCTCACTTATTTAAA",
    "cleaved RNA product abundance": 0.287
  },
  {
    "ordered.residues": "ACAGACGAAGGAGCCGCAAAGAAGTTATTAAGGGATGAATACTCCCTCAATATAAATATCTCTCACTTATTTAAA",
    "cleaved RNA product abundance": 0.565
  }
]
